System: TYK2(JH1domain-catalytic);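 note: KINOMEscan kinase panel screen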
protocol.conditions: concentration: 1 μM, replicates: in singlicate; n = 1
value.type: %Inh

- compound.structure.string: "O=C(Nc1n[nH]c2nc(-c3ccco3)c(Br)cc12)c1ccc(CN2CCCC2)cc1.O=C(O)[C@H](O)[C@@H](O)C(=O)O"
  reported.measurement: "0%"
- compound.structure.string: "FC(F)(F)c1ccc(-c2nn3ncccc3c2-c2ccnc(Nc3cccc(C(F)(F)F)c3)n2)cc1"
  reported.measurement: "0%"
- compound.structure.string: "FC(F)(F)c1cc(Nc2nccc(-c3c(-c4ccc(Cl)cc4)nn4ncccc34)n2)ccc1Cl"
  reported.measurement: "6%"
- compound.structure.string: "Cl.Fc1ccccc1COc1ccc(Nc2ncnc3ccc(-c4nnc(C(F)(F)F)o4)cc23)cc1Cl"
  reported.measurement: "11%"
- compound.structure.string: "O=c1cc(N2CCOCC2)nc2n(Cc3cccc(Cl)c3)ccn12"
  reported.measurement: "14%"
- compound.structure.string: "CS(=O)(=O)CCNCc1ccc(-c2ccc3ncnc(Nc4ccc(OCc5ccccc5)c(Cl)c4)c3c2)o1.Cl"
  reported.measurement: "27%"
- compound.structure.string: "Cc1cc(N2CCC(NS(=O)(=O)c3ccc(F)cc3)CC2)nc(Nc2cccc(C#N)c2)n1.O=C(O)C(F)(F)F"
  reported.measurement: "0%"
